Test system: NCI-H522
Experiment: NCI60 five-dose screen, Non-small Cell Lung Cancer
Assay type: cell-based
Conditions: Homo sapiens; NCI-H522, Non-small Cell Lung Cancer; five-dose screen; read-out: GI50
Under this convention, true denotes GI50 strictly below 2 µM and false denotes GI50 at or above 2 µM.

Please review the entries below; each comes with its answer.
- Molecule: "CC[C@]12C=CCN3CC[C@@]4(c5ccc(OC)cc5N(C)[C@H]4[C@@](O)(C(=O)OC)[C@@H]1OC(=O)CCC(=O)N1CCN(c4ccc(C(F)(F)F)cc4)CC1)[C@@H]32"
  System Under Test: "NCI-H522"
  Class Assignment: "false"
- Molecule: "CC[C@]12C=CCN3CC[C@@]4(c5ccc(OC)cc5N(C)[C@H]4[C@@](O)(C(=O)OC)[C@@H]1OC(=O)CCCN1CCN(Cc4ccc(F)cc4)CC1)[C@@H]32"
  System Under Test: "NCI-H522"
  Class Assignment: "false"
- Molecule: "CC[C@]12C=CCN3CC[C@@]4(c5ccc(OC)cc5N(C)[C@H]4[C@@](O)(C(=O)OC)[C@@H]1OC(=O)CCCN1CCN(c4ccc(C(F)(F)F)cc4)CC1)[C@@H]32"
  System Under Test: "NCI-H522"
  Class Assignment: "true"
- Molecule: "CCC12C=CCN3CCC4(c5cc(NC(=O)CN6CCN(c7ccc(C(F)(F)F)cc7)CC6)c(OC)cc5N(C)C4C(O)(C(=O)OC)C1OC(C)=O)C32 (centres unmarked)"
  System Under Test: "NCI-H522"
  Class Assignment: "false"
- Molecule: "CC[C@]12C=CCN3CC[C@@]4(c5ccc(OC)cc5N(C)[C@H]4[C@@](O)(C(=O)OC)[C@@H]1OC(=O)CCC(=O)N1CCN(Cc4ccc(C(F)(F)F)cc4)CC1)[C@@H]32"
  System Under Test: "NCI-H522"
  Class Assignment: "false"

(Q) Decide: GI50 of CCC12C=CCN3CCC4(c5cc(NC(=O)CN6CCN(C(c7ccc(F)cc7)c7ccc(F)cc7)CC6)c(OC)cc5N(C)C4C(O)(C(=O)OC)C1OC(C)=O)C32 (centres unmarked) strictly below 2 µM?
(A) false

(Q) Decide: GI50 of "CC[C@]12C=CCN3CC[C@@]4(c5ccc(OC)cc5N(C)[C@H]4[C@@](O)(C(=O)OC)[C@@H]1OC(=O)CCCN1CCN(Cc4ccc(C(F)(F)F)cc4)CC1)[C@@H]32" strictly below 2 µM?
(A) true

* * *

Test system: OVCAR-5
Assay: NCI60 five-dose screen, Ovarian Cancer
Type: cell-based
Details: Homo sapiens; OVCAR-5, Ovarian Cancer; five-dose screen; read-out: GI50
Field: GI50. Provide a value for each of the compounds that follow.
Give bare numbers, in µM.

See these solved cases before continuing.
- Compound: "CC[C@]12C=CCN3CC[C@@]4(c5ccc(OC)cc5N(C)[C@H]4[C@@](O)(C(=O)OC)[C@@H]1OC(=O)CCCN1CCN(Cc4ccc(F)cc4)CC1)[C@@H]32"
  Units Label: "µM"
  GI50: 13.8
- Compound: "CC[C@]12C=CCN3CC[C@@]4(c5ccc(OC)cc5N(C)[C@H]4[C@@](O)(C(=O)OC)[C@@H]1OC(=O)CCC(=O)N1CCN(c4ccc(C(F)(F)F)cc4)CC1)[C@@H]32"
  Units Label: "µM"
  GI50: 5.25
- Compound: "CCC12C=CCN3CCC4(c5cc(NC(=O)CN6CCN(c7ccc(C(F)(F)F)cc7)CC6)c(OC)cc5N(C)C4C(O)(C(=O)OC)C1OC(C)=O)C32 (centres unmarked)"
  Units Label: "µM"
  GI50: 10.7

Give GI50 for all compounds that follow.
1. CC[C@]12C=CCN3CC[C@@]4(c5ccc(OC)cc5N(C)[C@H]4[C@@](O)(C(=O)OC)[C@@H]1OC(=O)CCCN1CCN(Cc4ccc(C(F)(F)F)cc4)CC1)[C@@H]32
2. CC[C@]12C=CCN3CC[C@@]4(c5ccc(OC)cc5N(C)[C@H]4[C@@](O)(C(=O)OC)[C@@H]1OC(=O)CCC(=O)N1CCN(Cc4ccc(C(F)(F)F)cc4)CC1)[C@@H]32

(A)
1.62
14.5
